Reference for the values: the supplement of paper PMC8728848

# testedOn: Neu5Ac(a2-3)Gal(b1-3)[Fuc(a1-4)]GlcNAc(b1-3)Gal(b1-4)[Fuc(a1-3)]GlcNAc
# testSummary: glycan array binding signal (z-score within array); higher = stronger binding
# assaySetup: glycan notation: IUPAC condensed, linker removed
Many of the other results were omitted from the sample, so the strongest signals are more common in it than they were.
recordedMetric: glycan array binding signal (z-score)
Simply state the number, no unit and no words.

Look over these answered cases.
AFCNVH (Aspergillus fumigatus) (protein) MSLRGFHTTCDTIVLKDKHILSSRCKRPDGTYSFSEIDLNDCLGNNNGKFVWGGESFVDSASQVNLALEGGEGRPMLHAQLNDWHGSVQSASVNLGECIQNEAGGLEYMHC = -0.305
SLP (Clostridium difficile), Q183M8 (protein) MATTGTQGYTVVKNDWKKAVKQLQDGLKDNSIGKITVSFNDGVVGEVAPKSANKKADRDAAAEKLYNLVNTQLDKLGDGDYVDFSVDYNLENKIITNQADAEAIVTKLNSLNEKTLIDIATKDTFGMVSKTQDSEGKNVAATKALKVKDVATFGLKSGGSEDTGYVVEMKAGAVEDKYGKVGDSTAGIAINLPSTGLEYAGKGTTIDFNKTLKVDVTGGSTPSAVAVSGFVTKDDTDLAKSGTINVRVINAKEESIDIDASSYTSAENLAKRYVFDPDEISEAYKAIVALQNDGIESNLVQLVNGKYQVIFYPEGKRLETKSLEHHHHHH = -0.057
GH95CBM (Clostridium perfringens) (protein) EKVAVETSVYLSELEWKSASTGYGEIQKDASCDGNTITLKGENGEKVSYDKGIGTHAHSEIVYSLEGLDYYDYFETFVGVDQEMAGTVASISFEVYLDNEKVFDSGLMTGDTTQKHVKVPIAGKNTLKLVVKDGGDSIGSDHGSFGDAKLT = -0.265

We now examine a further binder.
Request: # glycan array binding signal (z-score) lookup, item F17eG (Escherichia coli), Q9RH92 (protein) MTNFYKVFLAVFILVCCNISHAAVSFIGSTENDVGPSQSSYSRTHAMDNLPFVYNTGYNIGYQNANVWRISGGFCVGLDGKVDLPVVGSLDGQSIYGLTEEVGLLIWMGDTNYSRGTAMSGNSWENVFSGWCVGNYVSTQGLSVHVRPVILKRNSSAQYSVQKTSIGSIRMRPYNGSSAGSVQTTVNFSLNPFTLNDTVTSCRLLTPSAVNVSLAAISAGQLPSSGDEVVAGTTSLKLQCDAGVTVWATLTDATTPSNRSDILTLTGASTATGVGLRIYKNTDSTPLKFGPDSPVKGNENQWQLSTGTETSPSVRLYVKYVNTGEGINPGTVNGISTFTFSYQ
Response: -0.097
